Reported values of inhibition of growth at 10 µM for individual entries
Tested on: M14
test method notes: Antitumor activity against human M14 cells assessed as growth inhibition at 10 uM relative to control
Assay type: functional
test parameters: read-out: GI
measured attribute: inhibition of growth at 10 µM

INSERT INTO measurements (sample_smiles, test_target, measured_attribute, recorded_result) VALUES
  ('N#Cc1c(-c2ccc(Cl)cc2)nc(N/N=C/c2ccc[nH]2)nc1N1CCOCC1', 'M14', 'inhibition of growth at 10 µM', '< 1%'),
  ('N#Cc1c(-c2ccc(Cl)cc2)nc(NN)nc1N1CCOCC1', 'M14', 'inhibition of growth at 10 µM', '< 1%'),
  ('COc1cc(/C=N/Nc2nc(-c3ccc(Cl)cc3)c(C#N)c(N3CCOCC3)n2)cc(OC)c1OC', 'M14', 'inhibition of growth at 10 µM', '48.8%'),
  ('CSc1nc(O)c(C#N)c(-c2ccc(Cl)cc2)n1', 'M14', 'inhibition of growth at 10 µM', '< 1%'),
  ('N#Cc1c(-c2ccc(Cl)cc2)nc(N/N=C/c2cccc(F)c2)nc1N1CCOCC1', 'M14', 'inhibition of growth at 10 µM', '< 1%'),
  ('N#Cc1c(-c2ccc(Cl)cc2)nc(N/N=C/c2cccc(Br)c2)nc1N1CCOCC1', 'M14', 'inhibition of growth at 10 µM', '37.6%'),
  ('N#Cc1c(-c2ccc(Cl)cc2)nc(N/N=C2/C(=O)Nc3ccccc32)nc1N1CCOCC1', 'M14', 'inhibition of growth at 10 µM', '< 1%'),
  ('CSc1nc(-c2ccc(Cl)cc2)c(C#N)c(N2CCOCC2)n1', 'M14', 'inhibition of growth at 10 µM', '< 1%'),
  ('Cc1cc(C)n(-c2nc(-c3ccc(Cl)cc3)c(C#N)c(N3CCOCC3)n2)n1', 'M14', 'inhibition of growth at 10 µM', '< 1%'),
  ('N#Cc1c(-c2ccc(Cl)cc2)[nH]c(=S)[nH]c1=O', 'M14', 'inhibition of growth at 10 µM', '< 1%');
